target: cynomolgus PDL1, recombinant (Sino Biological) / PDL1-Fc chimeric protein (cynomolgus (Macaca fascicularis), UniProt G7PSE7 19-238); test: SPR Biacore T200; cynomolgus PDL1 (Sino Biological) captured; scFv as analyte
Sequence (G7PSE7 entry or part of it mutant limits assumed): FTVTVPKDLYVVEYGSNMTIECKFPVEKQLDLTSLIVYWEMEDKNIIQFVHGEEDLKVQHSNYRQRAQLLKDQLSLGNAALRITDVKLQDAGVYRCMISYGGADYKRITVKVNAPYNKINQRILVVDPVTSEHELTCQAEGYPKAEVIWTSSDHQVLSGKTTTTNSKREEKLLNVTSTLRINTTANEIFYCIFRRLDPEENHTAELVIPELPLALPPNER
Readout Type: Kd (nM)
I only need the number, in nM, no unit after it.

Briefly, Kd measured for PRO1347 (37-20-B03-sc09 scFv) (scFv) DIQMTQSPASLSASVGDRVTITCQASQSIGTYLAWYQQKPGKPPKLLIYRAFILASGVPSRFSGSGSGTDFTLTISSLQPEDFATYYCQSNFYSDSTTIGPNAFGTGTKVTVLGGGGGSGGGGSGGGGSGGGGSEVQLVESGGGLVQPGGSLRLSCAASGFSFNSDYWIYWVRQAPGKGLEWIACIYGGSSGNTQYASWAQGRFTISRDNSKNTVYLQMNSLRAEDTAVYFCARGYVDYGGATDLWGQGTLVTVSS : 0.0127
